Biological target: Muscarinic acetylcholine receptor M2 (Homo sapiens)
Settings: Compound concentration 10 µM
Description: PDSP Primary Binding target: CHRM2 - Compounds are tested at 10 uM concentration, plate are incubated at room temperature in the dark for 90 minutes. Reaction are stopped by vacuum filtration onto 0.3% polyethyleneimine soaked filter mats using Filtermate harvester. Scintilation cocktail is then melted onto microwave-dried filters on a hot plate and the radio activity is counted in Microbia counter.
Listing of recorded inhibition by entry.
Reported property: inhibition (%)

>>> measured_result("O=C(O)CC/C=C\\C[C@@H]1CO[C@H](c2ccccc2Cl)O[C@@H]1c1ccccc1O")
-3.76
>>> measured_result("Cc1nc(C#Cc2ccnc(Cl)c2)c(C)n1-c1ccc(OC(F)(F)F)cc1")
-0.78
>>> measured_result("O=C(Cc1ccccc1)Nc1nc2ccc(Cl)cc2c2nc(-c3ccco3)nn12")
-4.43
>>> measured_result("COc1ccc(NC(=O)c2ccc(-c3ccc(-c4noc(C)n4)cc3C)cc2)cc1OCCN(C)C")
80.8
>>> measured_result("COc1ccc(S(=O)(=O)N2c3ccc(Cl)cc3[C@](O)(c3ccccc3Cl)[C@@H]2C(=O)N2CCC[C@H]2C(N)=O)cc1OC")
29.5
>>> measured_result("C[N+]1(C)[C@@H]2C[C@@H](OC(=O)C(O)(c3cccs3)c3cccs3)C[C@H]1[C@@H]1O[C@@H]12")
94.2
>>> measured_result("N#Cc1ccc2[nH]cc(CCCCN3CCN(c4ccc5oc(C(N)=O)cc5c4)CC3)c2c1")
-4.48
>>> measured_result("c1ccc(N2CCN(Cc3nc4ccccc4[nH]3)CC2)nc1")
-8.11
>>> measured_result("CCCCCCCCCCCCC/C=C/[C@@H](O)[C@@H](N)COP(=O)(O)O")
-7.68
>>> measured_result("Clc1ccc(CCCOCCCN2CCCCC2)cc1")
34.5
>>> measured_result("Cc1nc(-c2ccc(C(F)(F)F)cc2)sc1COc1ccc([C@H](CC(=O)O)c2ccon2)cc1")
25.2
>>> measured_result("COc1ccc(CNC(=O)c2cc(-c3cncc(Cl)c3)cnc2-c2ccccn2)nc1OC")
10.6
>>> measured_result("CN1CCC(=C2c3ccccc3CC(=O)c3sccc32)CC1")
75.2
>>> measured_result("O=c1ccc2ccc(OCCCCN3CCN(c4cccc5sccc45)CC3)cc2[nH]1")
-3.44
>>> measured_result("C[C@@H](N)Cc1c[nH]cn1")
-5.01
>>> measured_result("N#Cc1c(N)nc(SCC(N)=O)c(C#N)c1-c1ccc(OCC2CC2)cc1")
-6.03
>>> measured_result("O=C(O)C1CN(Cc2ccc(OCc3ccc(Cl)c(Cl)c3)cc2)C1")
-5.07
>>> measured_result("CC(C)NCC(O)COc1ccc(CCOCC2CC2)cc1 (centres undefined)")
-4.15
>>> measured_result("Oc1ccc2c3c1O[C@H]1c4[nH]c5c(c4C[C@@]4(O)[C@@H](C2)N(CC2CC2)CC[C@]314)C[C@@]1(O)[C@H]2Cc3ccc(O)c4c3[C@@]1(CCN2CC1CC1)[C@H]5O4")
0.51
